- Test system: T1, recombinant human AXL extracellular domain, C-terminally His8-tagged (rhAXL-ECD) (human, UniProt P30530 26-451)
- T1 construct: Made in CHO cells; also called (rh)AXL-ECD His8; human AXL ECD
- T1 sequence: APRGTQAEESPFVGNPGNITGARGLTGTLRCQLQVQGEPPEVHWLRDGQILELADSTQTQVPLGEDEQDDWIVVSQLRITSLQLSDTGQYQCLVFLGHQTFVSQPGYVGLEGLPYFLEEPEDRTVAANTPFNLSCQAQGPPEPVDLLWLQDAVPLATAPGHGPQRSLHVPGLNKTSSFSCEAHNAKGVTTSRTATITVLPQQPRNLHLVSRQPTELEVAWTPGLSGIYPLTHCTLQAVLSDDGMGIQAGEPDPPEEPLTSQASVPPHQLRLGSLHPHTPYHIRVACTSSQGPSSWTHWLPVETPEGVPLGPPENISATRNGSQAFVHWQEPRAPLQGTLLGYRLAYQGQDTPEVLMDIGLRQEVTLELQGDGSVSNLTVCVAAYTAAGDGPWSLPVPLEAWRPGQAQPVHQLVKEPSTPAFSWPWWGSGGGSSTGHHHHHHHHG
- Measurement notes: ELISA on coated AXL ECD (100 ng/well), HRP-protein A
- Protocol: ELISA. ELISAs against human, cyno and mouse AXL ECDs were conducted by immobilizing 100 ng of each protein in wells of Nunc MaxiSorp microplates overnight. Human AXL (aa 1-451) and cyno AXL (aa 1-449) were produced recombinantly as described in Example 10. […] Absorbance was measured at 450 nm. As a positive control for mouse AXL binding, a commercial anti-mouse AXL mAb (clone 175128, R&D Systems MAB8541, rat IgG2A) was used and detected with donkey […] secondary antibody.
Listed next: entries and their corresponding pEC50.
To interpret pEC50, take it as minus log10 of a concentration measured in moles per litre.

| Binder | pEC50 |
| --- | --- |
| hFC-F107-8D12 (antibody, human IgG1, kappa, V domains shown, Chimeric mAb, human IgG1 / human kappa constant regions; also called mAb F107-8D12; chimeric F107-8D12) VH: QVQLQQPGAELVKPGASVQLSCKASGYTFISFWINWVKQRPGQGLEWMGNIFPGSSSTNYNEKFKSKATLTVDKSSSTAYMQLSSLTSEDSAVYFCARDYYGGSPDYWGQGTTLTVSS VL: DIVMSQSPSSLAVSAGERVTMSCKSSQSLLNTRTRKNYLAWYQQKPGQSPKLLIYWASTRESGVPDRFTGSGSGTDFTLTISSVQAEDLAVYYCKQSYNLWTFGGGTKLEIKR | 9.00 |
| mIgG2 F155-3C7 (antibody, V domains shown, Printed as mIgG2 (mouse IgG2)) VH: QVQLQQPGTELVKPGASVKLSCKASGYIFTNFWINWVKQRPGQGLEWIGNIFPGSNSSNYNEKFKNKATLTVDKSSSTAYMHLSSLTSEDSAVYYCVRDYYGGSPDYWGQGTTLTVSS VL: DIVMSQSPSSLAVSAGEKVTMSCKSSQSLLNSKTRKNYLAWYQQKPGQSPKLLIYWASTRESGVPARFTGSGSGTDFTLTISSVQAEDLAIYYCKHSYNLWTFGGGTKLEIR | 7.85 |
| hFC-F111-5E9 (antibody, human IgG1, kappa, V domains shown, Chimeric mAb, human IgG1 / human kappa constant regions; also called mAb F111-5E9; hIgG-F111-5E9) VH: QIQLVQSGPELKKPGETVKISCKASGYTFTKYGMNWVKQAPGKGLKWMGWINTYTGEPTYADDFKGRFAFSLETSASTAYLQINNLTTEDMVTYFCAKGGYYSNPIYPMDYWGQGTSVTVSS VL: DIQMTQTTSSLSASLGDRVTISCRASQDINNYLNWYQQKPDGTVKLLIYYISRLHSGVPSRFSGSGSGTDYSLTISNLELEDVATYFCQQGNTLPFTFGSGTKLEIKR | 8.70 |

Please look at the following binder next.
Problem: GET /values?readout=pEC50&item= hFC-F107-7H5 (antibody, human IgG1, kappa, V domains shown, Chimeric mAb, mouse VH/VL on human IgG1 heavy and human kappa light constant regions, made in CHO cells; also called mAb F107-7H5; hIgG-F107-7H5) VH: QVQLQQPGAELVKPGASVKLSCKASGYTFTSYWINWVKQRPGQGLEWIGNIYPDSSSTNYNEKFKSKATLTVDKSSTTAYIQFSSLTSEDSAVYYCTRDTYGGSPDYWGQGTTLTVSS VL: DIVMSQSPSSLAVSAGEKVTMSCKSSQSLLNSRTRKIYLAWYQQKPGQSPKLLIYWASTRQSGVPDRFTGSGSGTDFTLTISSVQAEDLAVYYCKQSYNLWTFGGGTKLEIKR
Result: 8.22

Ref: patent US20240076389A1
